Assay: physchem
Conditions: 30 °C, water
EXPERIMENTAL ENDPOINT: solubility (mM)

{"MOLECULE": "CSCC[C@H](N)C(=O)O [methionine]", "VALUE REPORTED": 375}
